I'd be grateful if you could share measured phage binding ELISA signal for these entries.
- tested_on: T1, PSMA Fab (006 PSMA Fab)
- T1 construct: also called Anti-PSMA Fab
- assay_procedure: phage ELISA: clonal phage supernatant on biotinylated PSMA Fab captured on neutravidin plate, wells pre-incubated with PSMA antigen as competitor; anti-M13 HRP detection
Where no end group is shown, it is not given here.
// keep it numeric: no unit symbol after the value

Enquiry: Any idea what phage binding ELISA signal was measured for DTIQCKPAWMCVGF (tested as crude clonal phage supernatant) [Phage-3357 (Peptide-180 library peptide)] ?
Return: 0.102

Enquiry: Any idea what phage binding ELISA signal was measured for SEHFCRPAWMCTGF (tested as crude clonal phage supernatant) [Phage-3353 (Peptide-180 library peptide)] ?
Return: 0.0801

Enquiry: Any idea what phage binding ELISA signal was measured for LSWHCIPEWMCAGF (cysteine pairing not given here; also: fused to pIII of bacteriophage, tested as crude clonal phage supernatant) [Phage-3356 (Peptide-180 library peptide)] ?
Return: 0.07

Enquiry: Any idea what phage binding ELISA signal was measured for GQMYCKPSWMCNGF (tested as crude clonal phage supernatant) [Phage-3354 (Peptide-180 library peptide)] ?
Return: 0.0788

Enquiry: Any idea what phage binding ELISA signal was measured for VRPMCEPVWMCMGF (tested as crude clonal phage supernatant) [Phage-3351 (Peptide-180 library peptide)] ?
Return: 0.0972

Enquiry: Any idea what phage binding ELISA signal was measured for IGLLCAPKWMCEGF (cysteine pairing not given here; also: fused to pIII of bacteriophage, tested as crude clonal phage supernatant) [Phage-3355 (Peptide-180 library peptide)] ?
Return: 0.0676

Enquiry: Any idea what phage binding ELISA signal was measured for GDIRCVPEWMCSGL (cysteine pairing not given here; also: fused to pIII of bacteriophage, tested as crude clonal phage supernatant) [Phage-3350 (Peptide-180 library peptide)] ?
Return: 0.0749

Enquiry: Any idea what phage binding ELISA signal was measured for VESWCIPAWMCTGF (tested as crude clonal phage supernatant) [Phage-3359 (Peptide-180 library peptide)] ?
Return: 0.0794

Enquiry: Any idea what phage binding ELISA signal was measured for VIIKCEPRWMCEGF (tested as crude clonal phage supernatant) [Phage-3358 (Peptide-180 library peptide)] ?
Return: 0.068

Enquiry: Any idea what phage binding ELISA signal was measured for FPVRCVPEWMCSGF (tested as crude clonal phage supernatant) [Phage-3360 (Peptide-180 library peptide)] ?
Return: 0.0748
